Each item that follows carries a reported inhibition at 20 µg/mL.
Target: rat hepatic microsomal HMG CoA reductase (Rattus norvegicus)
Construct: rat hepatic microsomal HMG CoA reductase activity in vitro; from tissue; host or cells: rat liver microsomes
Experiment: inhibition in rat hepatic microsomal HMG CoA reductase activity in vitro (Table I)
Type: biochemical
Conditions: 20.0 micrograms/ml
recordedEndpoint: inhibition at 20 µg/mL (%)

{"compound": "Cc1c(/C=C/C(O)CC(O)CC(=O)O)c(-c2ccccc2)c2c3ccccc3ccn12 (stereo not shown)", "measuredResult": 85}
{"compound": "CC(C)c1c(/C=C/C(=O)CC(O)CC(=O)O)c(-c2ccccc2)c2c3ccccc3ccn12 (stereo not shown)", "measuredResult": 90}
{"compound": "CC(C)c1c(/C=C/C(O)CC(O)CC(=O)[O-])c(-c2ccccc2)c2c3ccccc3ccn12.[Na+] (stereo not shown)", "measuredResult": 98}
{"compound": "CCOC(=O)CC(O)CC(O)/C=C/c1c(-c2ccccc2)c2c3ccccc3ccn2c1C (stereo not shown)", "measuredResult": 70}
{"compound": "CC(C)c1c(/C=C/C(O)CC(O)CC(=O)O)c(-c2ccc(F)cc2)n2ccc3ccccc3c12 (stereo not shown)", "measuredResult": 98}
{"compound": "CC(C)c1c(/C=C/C(O)CC(O)CC(=O)O)c(-c2ccc(F)cc2)c2c3ccccc3ccn12 (stereo not shown)", "measuredResult": 99}
{"compound": "CC(C)c1c(CCC2CC(O)CC(=O)O2)c(-c2ccccc2)c2c3ccccc3ccn12 (stereo not shown)", "measuredResult": 44}

---

Each item that follows carries a reported inhibition at 2.22 µg/mL.
Biological target: rat hepatic microsomal HMG CoA reductase (Rattus norvegicus)
Construct: rat hepatic microsomal HMG CoA reductase activity in vitro; from tissue; host or cells: rat liver microsomes
Sequence (P51639 1-887): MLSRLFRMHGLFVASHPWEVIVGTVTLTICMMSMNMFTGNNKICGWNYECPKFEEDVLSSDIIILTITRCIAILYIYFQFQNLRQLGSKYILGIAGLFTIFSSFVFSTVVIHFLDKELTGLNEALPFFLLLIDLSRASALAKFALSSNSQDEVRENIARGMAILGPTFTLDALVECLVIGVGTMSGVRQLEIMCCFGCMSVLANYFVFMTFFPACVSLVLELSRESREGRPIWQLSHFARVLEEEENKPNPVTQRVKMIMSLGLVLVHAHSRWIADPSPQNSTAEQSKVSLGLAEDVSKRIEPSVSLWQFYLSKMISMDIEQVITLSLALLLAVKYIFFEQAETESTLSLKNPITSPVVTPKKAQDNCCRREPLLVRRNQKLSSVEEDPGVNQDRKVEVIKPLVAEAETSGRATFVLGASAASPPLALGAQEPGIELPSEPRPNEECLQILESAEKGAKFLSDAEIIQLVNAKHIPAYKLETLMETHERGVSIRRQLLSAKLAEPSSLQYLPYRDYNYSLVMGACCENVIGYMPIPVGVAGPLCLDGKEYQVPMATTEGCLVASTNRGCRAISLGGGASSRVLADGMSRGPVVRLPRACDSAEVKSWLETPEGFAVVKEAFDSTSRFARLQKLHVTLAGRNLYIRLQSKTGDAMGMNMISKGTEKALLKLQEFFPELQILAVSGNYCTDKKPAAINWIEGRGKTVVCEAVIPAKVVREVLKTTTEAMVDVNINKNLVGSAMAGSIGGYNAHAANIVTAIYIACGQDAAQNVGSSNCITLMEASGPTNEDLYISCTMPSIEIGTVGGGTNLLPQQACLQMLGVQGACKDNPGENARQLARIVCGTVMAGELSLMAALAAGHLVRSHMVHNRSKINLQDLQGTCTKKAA
Assay: inhibition in rat hepatic microsomal HMG CoA reductase activity in vitro (Table I)
Type: biochemical
Settings: 2.22 micrograms/ml
recordedEndpoint: inhibition at 2.22 µg/mL (%)

{"molecule": "Cc1c(/C=C/C(O)CC(O)CC(=O)O)c(-c2ccccc2)c2c3ccccc3ccn12 (stereo not drawn)", "target": "rat hepatic microsomal HMG CoA reductase (Rattus norvegicus)", "measuredResult": 46}
{"molecule": "CCOC(=O)CC(O)CC(O)/C=C/c1c(-c2ccccc2)c2c3ccccc3ccn2c1C (stereo not drawn)", "target": "rat hepatic microsomal HMG CoA reductase (Rattus norvegicus)", "measuredResult": 33}
{"molecule": "CCc1c(/C=C/C(O)CC(O)CC(=O)O)c(-c2ccc(F)cc2)c2c3ccccc3ccn12 (stereo not drawn)", "target": "rat hepatic microsomal HMG CoA reductase (Rattus norvegicus)", "measuredResult": 86}
{"molecule": "CC(C)c1c(/C=C/[C@@H](O)C[C@H](O)CC(=O)O)c(-c2ccc(F)cc2)c2c3ccccc3ccn12 (relative stereo)", "target": "rat hepatic microsomal HMG CoA reductase (Rattus norvegicus)", "measuredResult": 70}
{"molecule": "CC(C)c1c(/C=C/C(O)CC(O)CC(=O)O)c(-c2ccc(F)cc2)n2ccc3ccccc3c12 (stereo not drawn)", "target": "rat hepatic microsomal HMG CoA reductase (Rattus norvegicus)", "measuredResult": 90}
{"molecule": "CC(C)c1c(/C=C/C(=O)CC(O)CC(=O)O)c(-c2ccc(F)cc2)c2c3ccccc3ccn12 (stereo not drawn)", "target": "rat hepatic microsomal HMG CoA reductase (Rattus norvegicus)", "measuredResult": 70}
{"molecule": "CC(C)c1c(/C=C/C(O)CC(O)CC(=O)O)c(-c2ccc(F)cc2)c2c3ccccc3ccn12 (stereo not drawn)", "target": "rat hepatic microsomal HMG CoA reductase (Rattus norvegicus)", "measuredResult": 92}
{"molecule": "CCOC(=O)CC(O)CC(O)/C=C/c1c(-c2ccc(F)cc2)c2c3ccccc3ccn2c1C(C)C (stereo not drawn)", "target": "rat hepatic microsomal HMG CoA reductase (Rattus norvegicus)", "measuredResult": 95}
{"molecule": "CC(C)c1c(/C=C/[C@@H](O)C[C@@H](O)CC(=O)O)c(-c2ccc(F)cc2)c2c3ccccc3ccn12 (relative stereo)", "target": "rat hepatic microsomal HMG CoA reductase (Rattus norvegicus)", "measuredResult": 95}

These data points were gathered from patent US4933350A.
